Quick reference: IC50 of the listed items.
System: Aβ40 in conditioned medium of cells stably expressing Amyloid Precursor Protein (APP)
method: In vitro BACE cell-based assay (Aβ40 in conditioned medium, sandwich ELISA);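 also: compounds added as a dilution series, secreted peptide quantified by europium time-resolved fluorescence readout, potency fitted from percent of control versus compound concentration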
experimental.context: Homo sapiens, HEK293, HEK cell-based assay, IC50's in uM; read-out: HEK cell assay
A number alone suffices; assume µM.

[
  {
    "compound": "CO[C@H](C)C(=O)N[C@@H](Cc1cncs1)[C@H](O)CN[C@H]1CC2(CCC2)Oc2c1cc(CC(C)(C)C)nc2-c1ccccn1 [compound 781]",
    "measurement.kind": "IC50",
    "reading": 0.206
  },
  {
    "compound": "CCO[C@H](C)C(=O)N[C@@H](Cc1ccc2c(c1)OCO2)[C@H](O)CN[C@H]1CC2(CCC2)Oc2ncc(CC(C)C)cc21 [compound 808]",
    "measurement.kind": "IC50",
    "reading": 0.414
  }
]

Input line: Which IC50 is listed for COCC(=O)N[C@@H](Cc1cc(F)cc(-c2nccs2)c1)[C@H](O)CN[C@H]1CC2(CCC2)Oc2cnc(CC(C)(C)C)cc21 [Example 782] ?
Output line: 0.036
